Measured growth inhibition accompanies every entry in the list below.
experiment: NCI Yeast Anticancer Drug Screen. Data for the cln2 rad14 strain (AID 165);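 note: 0% = growth equal to vehicle treated cultures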; conditions: S. cerevisiae cln2 rad14 strain, at 5.0 µM (retest, dose inferred, filed as 0.5), stronger effect = higher value
About 79,000 compounds went through this panel and 15% of them were active in at least one assay; those are over-represented in the sample as a whole.
The reply should contain only the number, in %.

Example molecules with recorded growth inhibition:
• COC(=O)c1ccc(Cl)c(Cl)c1 = 1
• N#Cc1c(-c2ccc(Cl)c(Cl)c2)c(-c2ccc(Cl)c(Cl)c2)nn(CCO)c1=O = 39

Data point: `Fc1cccc(CSc2n[nH]c(=S)c3nc[nH]c23)c1` ; growth inhibition = -7

Looking up `CC(C)Cn1cnc2c(SCc3ccccc3[N+](=O)[O-])nc(N)nc21` , I see its growth inhibition listed as -22

The molecule listed as `c1ccc(SSc2ccccc2)cc1` shows growth inhibition equal to 1

Form: molecule = `Cc1cc(C2CCCCC2)n(O)c(=O)c1` ; growth inhibition = 96

Note to self: growth inhibition recorded for CC(O)C(NC(=O)OCc1ccccc1)C(=O)OC(c1ccccc1)c1ccccc1 (stereo unspecified) was -3

====

assay: NCI Yeast Anticancer Drug Screen. Data for the sgs1 mgt1 strain (AID 161);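 note: 0% = growth of cultures given vehicle only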; details: S. cerevisiae sgs1 mgt1 strain, at 50.0 µM, stronger effect = higher value
The panel holds about 79,000 compounds, 15% with a hit somewhere; the sample as a whole holds those more often. Activity calls are given as the source filed them. No stated cut-off is given here; in the data, active means growth inhibition above about 70%; inactive means the rest.
endpoint label: growth inhibition

* O=C(O)/C=C/C(=O)Nc1cccc2c1C(=O)c1ccccc1-2 | 97.3% (active)
* COc1ccc(CN2CCCN(Cc3ccc(OC)cc3OC)C2c2cc(Cl)cc(Cl)c2O)c(OC)c1 | 76.2% (active)
* NC(=O)C(CCc1cccc2ccccc12)c1ccccc1 (stereo not drawn) | 36.3% (inactive)
* COc1ccc(C2C3CCCC(C3=O)C(c3ccc(OC)cc3)N2N=O)cc1 (stereo not drawn) | 59.5% (inactive)
* COc1cc(/C=C2/C(=O)N(C(=O)c3ccccc3O)N=C2C)cc(OC)c1OC | 36.5% (inactive)

Please fill in: growth inhibition reported for `CC(=O)N(N)c1ccccc1` = 33.3% (inactive)

growth inhibition for `Cc1ccc(C)c(N2C(=O)C(=O)c3c(C)ccc(C)c32)c1` is 97.7% (active)

Record summary for O=C(CCCN1CCC2(CC1)CC(c1ccccc1)OC2=O)c1ccc(F)cc1 (stereo not drawn) : reported growth inhibition = 94.7% (active)

response.value for `Clc1ccc(CNc2ccc(Br)cc2)cc1` (field: growth inhibition) = 95.8% (active)

// recorded growth inhibition for `CCCC#CCCOC(=O)c1cc([N+](=O)[O-])cc([N+](=O)[O-])c1` : 99.5% (active)

Item: `O=C1OC(=O)c2cc([N+](=O)[O-])cc3cccc1c23` | growth inhibition: 29.2% (inactive)

Looking up `O=C1c2ccccc2-c2cc3ccccc3nc21` , I see its growth inhibition listed as 48.2% (inactive)

====

Experiment: NCI Yeast Anticancer Drug Screen. Data for the mlh1 rad18 strain (AID 175)
Conditions: S. cerevisiae mlh1 rad18 strain growth inhibition; at 50.0 µM (retest, dose inferred, filed as 5.0); stronger effect = higher value
Protocol: Growth inhibition of yeast strains with defined genetic alterations is measured as a screen for potential anti-cancer activity. Selected strains with alterations in DNA damage repair or cell cycle control were exposed to compounds and growth inhibition was measured relative to vehicle treated controls. The strain used in this assay is mlh1 rad18
The panel holds about 79,000 compounds, 15% with a hit somewhere; the sample as a whole holds those more often.
endpoint label: growth inhibition (%)
Unit % implied. Number only.

• O=C(N/N=C/c1ccccc1[O-])c1ccccc1O.O=C(N/N=C/c1ccccc1[O-])c1ccccc1O.[Mn+2] = 99
• CC(=O)Oc1c(O)c2ccccc2c2ccccc12 = 92

Please fill in: growth inhibition reported for O=C(CC(c1ccccc1)N1CCCCC1)OC1c2ccccc2-c2ccccc21 (configuration not stated) = 56

Please fill in: growth inhibition reported for CCCCCCCCCCCCCCNC(=O)CCC(NC(=O)c1ccc(N(C)Cc2cnc3nc(N)nc(N)c3n2)cc1)C(=O)NCCCCCCCCCCCCCC (configuration not stated) = 91

// growth inhibition value for Cc1ccc(NC2=CC(=O)C(NO)c3ccccc32)cc1 (configuration not stated) : 79

// field: growth inhibition; key: `Cc1ccc(C2(O)c3ccccc3-c3ccccc32)cc1` ; value = 98

# growth inhibition of `COc1ccc(CC/C(=N/O)c2ccccc2)cc1` = 96

====

assay: NCI Yeast Anticancer Drug Screen. Data for the mec2-1 strain (AID 157); details: S. cerevisiae mec2-1 strain, at 50.0 µM (retest, dose inferred, filed as 5.0)
The panel holds about 79,000 compounds, 15% with a hit somewhere; the sample as a whole holds those more often. Activity calls are given as the source filed them. Rule as the data show it: active = growth inhibition above about 70%; inactive = the rest.
Outcomes you can answer with include only these: T = active, F = inactive

Look over these answered cases.
* Cc1nc2c(cnn2C)cc1CCc1ccccc1 | F
* C(=N\NC1=NCCN1)/c1ccc(-c2cn3cc(/C=N/NC4=NCCN4)ccc3n2)cc1 | T
* O=C1CSC(=S)N1/N=C/c1ccc(Cl)c([N+](=O)[O-])c1 | F
* O=C(NNc1ccccc1)c1ccc([N+](=O)[O-])cc1 | T
* Cc1ccc([Si](O)(c2ccc(C)cc2)c2ccc(C)cc2)cc1 | T
* O=c1sc(=S)[nH]c2ccccc12 | F

From here, focus on the item given below.
Which outcome was entered for the molecule `CCCn1c2ccccc2c2ccc3c(c21)C(=O)C=CC3=O` in this test?
T

====

assay: NCI Yeast Anticancer Drug Screen. Data for the rad50 strain (AID 155);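 note: 0% = growth of vehicle-only cultures of the same strain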; settings: S. cerevisiae rad50 strain growth inhibition; at 50.0 µM; stronger effect = higher value
The panel holds about 79,000 compounds, 15% with a hit somewhere; the sample as a whole holds those more often.
endpoint label: growth inhibition (%)
Write the value in % as a bare number.

Some solved cases for reference:
- [O-]c1c2cc(-[n+]3c(-c4ccccc4)cc(-c4ccccc4)cc3-c3ccccc3)cc1CO[C@@H](c1ccccc1)[C@H](c1ccccc1)OCCOCCO[C@@H](c1ccccc1)[C@H](c1ccccc1)OC2: 87.5
- COc1ccc(CCCCI)cc1: 94.6
- CC1(C)C2CCC1(CS(=O)O)C(=O)C2.[Ag] (stereo not given): 99.2
- c1ccc(CCCCc2ccncc2)cc1: 87.3
- CCCCCCCCCCN(CCCCCCCCCC)C(=O)COc1c2cc(C(C)(C)C)cc1Cc1cc(C(C)(C)C)cc(c1OCC(=O)N(CCCCCCCCCC)CCCCCCCCCC)Cc1cc(C(C)(C)C)cc(c1OCC(=O)N(CCCCCCCCCC)CCCCCCCCCC)Cc1cc(C(C)(C)C)cc(c1OCC(=O)N(CCCCCCCCCC)CCCCCCCCCC)C2: 85.8
- CCCN(CCC)CC(O)c1ccc2ccc3ccc(Cl)cc3c2c1 (stereo not given): 99.8
- O=C(CCl)Nc1cc(Cl)ccc1Cl: 37.5
- CCCCCCCCN=C(N)c1ccc(C(=O)OCC2CCCCC2)cc1: 99.6
- COC1=CC(=O)c2c(ccc3ncnc(N)c23)C1=O: 22
- O=C(O)CCCNc1ncc2c(n1)-c1ccccc1OC2: 65.5

Now let's try a different one.
Recorded result, OC1OCC(OCc2ccccc2)C(OCc2ccccc2)C1OCc1ccccc1 (stereo not given) , growth inhibition: 97.4

====

test: NCI Yeast Anticancer Drug Screen. Data for the mlh1 rad18 strain (AID 175); conditions: S. cerevisiae mlh1 rad18 strain growth inhibition; at 50.0 µM; stronger effect = higher value
This is part of a sample that, as a whole, favours compounds with a hit. Of some 79,000 tested, about 15% had one in any assay.
growth inhibition below 90% gives N; growth inhibition at or above it gives Y.

Check out these entries, answers already filled in.
• N#Cc1c(Cl)nnc(-c2ccccc2)c1-c1ccccc1 = Y
• Cc1ccc([Si](O)(c2ccc(C)cc2)c2ccc(C)cc2)cc1 = Y
• CN(C)N=Nc1c(-c2cccs2)n[nH]c1C(F)(F)F = Y
• CC12C(=O)N(CC(=O)O)C(=O)C1(C)C1c3ccccc3C2c2ccc3ccccc3c21 (stereo not drawn) = Y
• CC(=O)OC1=CC2(OC(C)=O)CC(C)(C)C1C1C(=O)C=CC(=O)C12 (stereo not drawn) = N
• CCCCCCCSCc1nc2ccccc2c(C)[n+]1[O-] = Y

Attention now shifts to the item below.
For this compound, is measured growth inhibition 90% or higher? `COC(=O)/C=C1/OC(c2ccccc2)=CC1=O`
N

====

test: NCI Yeast Anticancer Drug Screen. Data for the rad50 strain (AID 155);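 note: 0% = growth of vehicle-only cultures of the same strain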; conditions: S. cerevisiae rad50 strain growth inhibition; at 50.0 µM (retest, dose inferred, filed as 5.0); stronger effect = higher value
About 79,000 compounds went through this panel and 15% of them were active in at least one assay; those are over-represented in the sample as a whole. Active and inactive are the calls of the source. Cut-off read from the data, not from the text of the source: active = growth inhibition above about 70%; inactive = the rest.
// reported growth inhibition per item

These recorded examples may help you get a feel for the data.
- O=C(NNc1ccccc1)c1ccc([N+](=O)[O-])cc1: 95% (active)
- CC(=O)O/N=C1/CCC2C3CC=C4CC(OC(C)=O)CCC4(C)C3CCC12C (configuration not stated): 69% (inactive)
- O=C1CCSC(=S)N1c1ccc(Br)c(Cl)c1: 94% (active)
- O=C(/C=C/c1ccccc1Cl)c1ccc(F)cc1: 22% (inactive)
- Cc1cc(Br)c(NC(=O)CBr)cc1C: 95% (active)
- Cc1ccc(SCN2CCCCC2)cc1 (tested in a mixture with another compound): 29% (inactive)

Recorded result, `CCC(=O)Nc1ccc(NC(C)=O)cc1` , growth inhibition: -9% (inactive)

Field growth inhibition (entry `Cc1nc2c(cnn2C)cc1CCc1ccccc1` ) reads 16% (inactive)

For record `Cc1ccc(C2(O)CCN(Cc3ccccc3)CC2)cc1` the listed growth inhibition is 85% (active)

Value of growth inhibition reported for the compound `CCOC(=O)c1cnc2cc3cccccc3n2c1=O` is 62% (inactive)

Entry under test: `COC(=O)c1ccc(CCC2=CC(=O)C=CC2=O)cc1` . Its growth inhibition was 99% (active)

So for COC1CCC(/C(C#N)=C/c2ccco2)CC1 (configuration not stated) , the logged growth inhibition turned out to be 22% (inactive)

Noted for `Cc1ccc(O)c(C(C)(C)c2ccccc2)c1` : its growth inhibition reads 77% (active)

The recorded growth inhibition for `Cc1c(Cl)cccc1NC(=O)/C(Cl)=C(\Cl)C(=O)O` is 33% (inactive)

The recorded growth inhibition for entry `O=C1CSC(Cc2nc3ccccc3[nH]2)=N1` equals 79% (active)

Record summary for CC1CCN(C(=S)NNC(C)c2cc3ccccc3cn2)CC1 (configuration not stated) : reported growth inhibition = 97% (active)

Lab book: growth inhibition of `COc1ccc([N+](=O)[O-])cc1Nc1c2ccccc2nc2ccccc12` noted as 69% (inactive)

The compound listed as `CC/C(Cl)=N\OC(=O)Nc1ccc(F)c(Cl)c1` shows growth inhibition equal to 98% (active)

Entry under test: `O=c1c(-c2ccccc2)coc2cc(O)ccc12` . Its growth inhibition was 8% (inactive)
